Origin of measurements: patent US20220017566A1

- subject of test: CYP3A4 (Homo sapiens, UniProt P08684)
- Construct: studied in liver microsomes of CD-1 mouse, Sprague Dawley rat, Beagle dog, cynomolgus monkey, and human; from tissue; host or cells: liver microsomes
- Sequence (P08684 whole entry): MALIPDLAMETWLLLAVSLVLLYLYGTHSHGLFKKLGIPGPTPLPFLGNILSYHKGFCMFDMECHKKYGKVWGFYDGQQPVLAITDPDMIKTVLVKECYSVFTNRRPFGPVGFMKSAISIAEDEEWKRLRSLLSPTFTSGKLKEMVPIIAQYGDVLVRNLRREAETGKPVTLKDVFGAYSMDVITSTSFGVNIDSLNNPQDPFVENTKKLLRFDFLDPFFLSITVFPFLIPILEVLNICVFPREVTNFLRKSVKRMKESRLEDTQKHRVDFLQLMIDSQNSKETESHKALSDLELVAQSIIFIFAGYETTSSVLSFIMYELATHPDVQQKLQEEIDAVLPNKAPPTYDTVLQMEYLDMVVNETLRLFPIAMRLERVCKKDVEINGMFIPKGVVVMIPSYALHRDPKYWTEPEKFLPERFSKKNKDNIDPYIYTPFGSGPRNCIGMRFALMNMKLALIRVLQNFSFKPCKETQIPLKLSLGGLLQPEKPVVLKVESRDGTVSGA
- procedure summary: CYP450 enzyme inhibition in liver microsomes (cocktail probe incubation)
- Assay type: in vitro ADME
- details: species not given, 0.05-50 μM tested
The threshold is 900 nM. Values of IC50 beneath it are tagged TRUE; values meeting or exceeding it are tagged FALSE.

# molecule, class label
rows = [
    ("CC1(C)C(=O)C(C#N)=C[C@]2(C)C3=CC(=O)[C@@H]4[C@@H]5C[C@@](C)(N6CCCC6=O)CC[C@]5(C)CC[C@@]4(C)[C@]3(C)CC[C@@H]12", "FALSE"),
    ("CC(=NC#N)NC[C@]12CCC(C)(C)C[C@H]1[C@H]1C(=O)C=C3[C@@]4(C)C=C(C#N)C(=O)C(C)(C)[C@@H]4CC[C@@]3(C)[C@]1(C)CC2", "FALSE"),
    ("CNC(=NC#N)NC[C@]12CCC(C)(C)C[C@H]1[C@H]1C(=O)C=C3[C@@]4(C)C=C(C#N)C(=O)C(C)(C)[C@@H]4CC[C@@]3(C)[C@]1(C)CC2", "FALSE"),
    ("COC(=O)[C@]12CCC(C)(C)C[C@H]1[C@H]1C(=O)C=C3[C@@]4(C)C=C(C#N)C(=O)C(C)(C)[C@@H]4CC[C@@]3(C)[C@]1(C)CC2 [Control, reference compound]", "FALSE"),
    ("CC1(C)C(=O)C(C#N)=C[C@]2(C)C3=CC(=O)[C@@H]4[C@@H]5C[C@@](C)(C#N)CC[C@]5(C)CC[C@@]4(C)[C@]3(C)CC[C@@H]12", "FALSE"),
    ("CC1(C)C(=O)C(C#N)=C[C@]2(C)C3=CC(=O)[C@@H]4[C@@H]5C[C@@](C)(Cc6nnco6)CC[C@]5(C)CC[C@@]4(C)[C@]3(C)CC[C@@H]12", "FALSE"),
    ("CC1(C)C(=O)C(C#N)=C[C@]2(C)C3=CC(=O)[C@@H]4[C@@H]5C[C@@](C)(n6cnnc6)CC[C@]5(C)CC[C@@]4(C)[C@]3(C)CC[C@@H]12", "TRUE"),
    ("CC1(C)C(=O)C(C#N)=C[C@]2(C)C3=CC(=O)[C@@H]4[C@@H]5C[C@@](C)(N6CCC(O)C6)CC[C@]5(C)CC[C@@]4(C)[C@]3(C)CC[C@@H]12 (some centres unmarked)", "FALSE"),
    ("CC1(C)C(=O)C(C#N)=C[C@]2(C)C3=CC(=O)[C@@H]4[C@@H]5C[C@@](C)(N6C(=O)CCC6=O)CC[C@]5(C)CC[C@@]4(C)[C@]3(C)CC[C@@H]12", "FALSE"),
    ("CC1(C)C(=O)C(C#N)=C[C@]2(C)C3=CC(=O)[C@@H]4[C@@H]5C[C@@](C)(c6nnco6)CC[C@]5(C)CC[C@@]4(C)[C@]3(C)CC[C@@H]12", "TRUE"),
    ("Cc1cnc([C@@]2(C)CC[C@]3(C)CC[C@]4(C)[C@H](C(=O)C=C5[C@@]6(C)C=C(C#N)C(=O)C(C)(C)[C@@H]6CC[C@]54C)[C@@H]3C2)o1", "TRUE"),
    ("Cc1nnc([C@@]2(C)CC[C@]3(C)CC[C@]4(C)[C@H](C(=O)C=C5[C@@]6(C)C=C(C#N)C(=O)C(C)(C)[C@@H]6CC[C@]54C)[C@@H]3C2)o1", "FALSE"),
    ("CC1(C)C(=O)C(C#N)=C[C@]2(C)C3=CC(=O)[C@@H]4[C@@H]5C[C@@](C)(c6nnc(C(N)=O)o6)CC[C@]5(C)CC[C@@]4(C)[C@]3(C)CC[C@@H]12", "FALSE"),
    ("CC1(C)C(=O)C(C#N)=C[C@]2(C)C3=CC(=O)[C@@H]4[C@@H]5C[C@@](C)(c6ncco6)CC[C@]5(C)CC[C@@]4(C)[C@]3(C)CC[C@@H]12", "TRUE"),
    ("CC1(C)C(=O)C(C#N)=C[C@]2(C)C3=CC(=O)[C@@H]4[C@@H]5C[C@@](C)(N6CCOCC6)CC[C@]5(C)CC[C@@]4(C)[C@]3(C)CC[C@@H]12", "TRUE"),
    ("CNC(=O)c1nnc([C@@]2(C)CC[C@]3(C)CC[C@]4(C)[C@H](C(=O)C=C5[C@@]6(C)C=C(C#N)C(=O)C(C)(C)[C@@H]6CC[C@]54C)[C@@H]3C2)o1", "TRUE"),
    ("CC1(C)C(=O)C(C#N)=C[C@]2(C)C3=CC(=O)[C@@H]4[C@@H]5C[C@@](C)(c6nnc(C(=O)NC7CC7)o6)CC[C@]5(C)CC[C@@]4(C)[C@]3(C)CC[C@@H]12", "FALSE"),
    ("CC1(C)C(=O)C(C#N)=C[C@]2(C)C3=CC(=O)[C@@H]4[C@@H]5C[C@@](C)(N6CC(O)C6)CC[C@]5(C)CC[C@@]4(C)[C@]3(C)CC[C@@H]12", "FALSE"),
    ("CC1(C)C(=O)C(C#N)=C[C@]2(C)C3=CC(=O)[C@@H]4[C@@H]5C[C@@](C)(c6nnc(C(F)(F)F)o6)CC[C@]5(C)CC[C@@]4(C)[C@]3(C)CC[C@@H]12", "FALSE"),
]
